System: Caenorhabditis elegans N2
Experiment: food intake (mean delta OD600 / animal over 72 h) with 50 uM loxapine co-treatment (OD600 units per animal); higher = more food eaten (less suppression of loxapine-induced hyperphagia)
Conditions: first compound 33 µM, loxapine concentration 50 µM
Structures can show the parent of a compound that is named as a salt.
Attribute: food intake
Kindly provide the number alone.

Would you please look over these solved cases?
molecule	food intake
O=NN(CCCl)C(=O)NC1CCCCC1 [Lomustine] + CN1CCN(C2=Nc3ccccc3Oc3ccc(Cl)cc32)CC1	0.0248
CC(=O)NCCCS(=O)(=O)O [Acamprosate (calcium)] + CN1CCN(C2=Nc3ccccc3Oc3ccc(Cl)cc32)CC1	0.023

// moving on: another record for food intake
Entry COc1c(N2C[C@@H]3CCCN[C@@H]3C2)c(F)cc2c(=O)c(C(=O)O)cn(C3CC3)c12 [moxifloxacin (hydrochloride)] + CN1CCN(C2=Nc3ccccc3Oc3ccc(Cl)cc32)CC1 needs its food intake filled in; supply it.
0.0216
